Target: T1, human GST-CEACAM1 (human, UniProt P13688 35-141, limits assumed)
T1 construct: printed both as GST-CEACAM1 and CEACAM1-GST; also called human CEACAM1-GST protein; hCEACAM1-GST; not shown: GST tag
T1 sequence: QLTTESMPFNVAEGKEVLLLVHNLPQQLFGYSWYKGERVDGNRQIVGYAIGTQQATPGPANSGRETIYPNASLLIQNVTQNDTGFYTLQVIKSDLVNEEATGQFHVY
Assay: competition ELISA vs murine parent antibody
Endpoint label: average relative IC50 (normalized to chimeric antibody)
Lab note: write values as number then unit, every time.

get_value(item= VH1/Vκ1 (antibody, V domains shown) VH: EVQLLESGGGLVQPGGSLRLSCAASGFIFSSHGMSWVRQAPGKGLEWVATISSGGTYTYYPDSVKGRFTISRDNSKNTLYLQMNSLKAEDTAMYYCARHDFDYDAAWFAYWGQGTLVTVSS VL: QIVLTQSPALLSLSPGERATMSCSANSSVSYMYWYRQKPGQAPKPWIYLTSNLASGVPARFSGSGSGTDYTLTISSLEAEDFATYYCQQWSSNPPTFGQGTKLEIK , readout=average relative IC50 (normalized to chimeric antibody)) returns 1.5 ratio

get_value(item= VH2/Vκ2 (antibody, V domains shown) VH: EVQLLESGGGLVQPGGSLRLSCAASGFIFSSHGMSWVRQAPGKGLEWVATISSGGTYTYYPDSVKGRFTISRDNSKNTLYLQMNSLRAEDTAMYYCARHDFDYDAAWFAYWGQGTLVTVSS VL: EIVLTQSPATLSLSPGERATLSCRANSSVSYMYWYQQKPGQAPRPWIYLTSNRATGVPARFSGSGSGTDYTLTISSLEPEDFATYYCQQWSSNPPTFGQGTKLEIK , readout=average relative IC50 (normalized to chimeric antibody)) returns 1.6 ratio

get_value(item= VH2/Vκ1 (antibody, V domains shown) VH: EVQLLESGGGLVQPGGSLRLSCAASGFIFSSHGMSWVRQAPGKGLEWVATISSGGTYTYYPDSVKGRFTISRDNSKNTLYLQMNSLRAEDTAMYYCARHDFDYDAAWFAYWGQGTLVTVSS VL: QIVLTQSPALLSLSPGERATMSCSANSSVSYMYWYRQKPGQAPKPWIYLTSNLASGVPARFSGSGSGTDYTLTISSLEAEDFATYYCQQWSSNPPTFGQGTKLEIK , readout=average relative IC50 (normalized to chimeric antibody)) returns 1.7 ratio

All values here come from patent US20250388666A1.
